# measurement target: Recombinant human JARID1B/KDM5B (Homo sapiens)
# Construct: purchased Active Motif 31432; host or cells: Sf9 insect cells
# measurement description: LANCE Ultra TR-FRET JARID1B (KDM5B) demethylase inhibition assay
# Assay type: biochemical
# condition: 0.1 uM of test-compounds, FLAG-JARID1B, 500 nM biotinylated H3K4me3 peptide substrate, 30 min at room temperature
Below is a list of entries, each paired with its recorded inhibition at 0.1 µM value.

Completed entries (count: 5):
O=c1[nH]c(COc2ccc(F)c(Cl)c2)nc2c(-c3csc(NCCN4CCOCC4)n3)nccc12 [Compound 82] :: ≥ 50%
O=c1[nH]c(-c2cc3ccccc3o2)nc2c(-c3csc(NCCO)n3)nccc12 [Compound 167] :: 20 to 50%
COCCNc1nc(-c2nccc3c(=O)[nH]cnc23)cs1 [Compound 42] :: ≥ 50%
Nc1nn(-c2nccc3c(=O)[nH]cnc23)cc1-c1cccc(N2CCNCC2)c1 [Compound 20] :: ≥ 50%
CC(C)N1CCC(CNc2nc(-c3nccc4c(=O)[nH]c(COc5ccc(F)c(Cl)c5)nc34)cs2)CC1 [Compound 97] :: 20 to 50%

Problem: Given the molecule Nc1nc(-c2nccc3c(=O)[nH]c(COc4ccc(Cc5ccccc5)cc4)nc23)cs1 [Compound 71] , what is its reported inhibition at 0.1 µM?
Solution: ≥ 50%

Problem: Follow-up item: Nc1nn(-c2nccc3c(=O)[nH]cnc23)cc1-c1cnn(C2CCCC2)c1 [Compound 35]
Solution: 20 to 50%

Problem: Follow-up item: O=c1[nH]c(COCc2ccccc2)nc2c(-c3csc(NCCCO)n3)nccc12 [Compound 147]
Solution: < 20%

Problem: Follow-up item: CCN(CC)c1nc(-c2nccc3c(=O)[nH]c(COc4ccc(F)c(Cl)c4)nc23)cs1 [Compound 105]
Solution: < 20%

Problem: Follow-up item: O=c1[nH]c(COc2cc(F)cc(F)c2)nc2c(-c3csc(NCCO)n3)nccc12 [Compound 129]
Solution: < 20%

Problem: Follow-up item: NCCNc1nc(-c2nccc3c(=O)[nH]c(COc4ccc(F)c(Cl)c4)nc23)cs1 [Compound 88]
Solution: ≥ 50%

Problem: Follow-up item: C[C@H](O)CNc1nc(-c2nccc3c(=O)[nH]cnc23)cs1 [Compound 39]
Solution: ≥ 50%

Problem: Follow-up item: O=c1[nH]cnc2c(-n3cc(-c4cccc(CCCO)c4)cn3)nccc12 [Compound 7]
Solution: < 20%

Problem: Follow-up item: O=c1[nH]c(COc2ccc(F)c(Cl)c2)nc2c(-c3ccc(N4CCOCC4)nc3)nccc12 [Compound 78]
Solution: < 20%

Problem: Follow-up item: O=c1[nH]c(Cc2ccccc2)nc2c(-c3csc(NCCO)n3)nccc12 [Compound 139]
Solution: < 20%

Problem: Follow-up item: CN1CCN(Cc2cccc(-c3cnn(-c4nccc5c(=O)[nH]cnc45)c3)c2)CC1 [Compound 6]
Solution: < 20%

Problem: Follow-up item: CCC(O)CNc1nc(-c2nccc3c(=O)[nH]cnc23)cs1 (centres unmarked) [Compound 60]
Solution: 20 to 50%

###

Below is a list of entries, each paired with its recorded inhibition at 0.1 µM value.
# measurement target: Recombinant human JARID1B/KDM5B (Homo sapiens, UniProt Q9UGL1)
# Construct: purchased Active Motif 31432; host or cells: Sf9 insect cells
# Sequence (Q9UGL1 whole entry): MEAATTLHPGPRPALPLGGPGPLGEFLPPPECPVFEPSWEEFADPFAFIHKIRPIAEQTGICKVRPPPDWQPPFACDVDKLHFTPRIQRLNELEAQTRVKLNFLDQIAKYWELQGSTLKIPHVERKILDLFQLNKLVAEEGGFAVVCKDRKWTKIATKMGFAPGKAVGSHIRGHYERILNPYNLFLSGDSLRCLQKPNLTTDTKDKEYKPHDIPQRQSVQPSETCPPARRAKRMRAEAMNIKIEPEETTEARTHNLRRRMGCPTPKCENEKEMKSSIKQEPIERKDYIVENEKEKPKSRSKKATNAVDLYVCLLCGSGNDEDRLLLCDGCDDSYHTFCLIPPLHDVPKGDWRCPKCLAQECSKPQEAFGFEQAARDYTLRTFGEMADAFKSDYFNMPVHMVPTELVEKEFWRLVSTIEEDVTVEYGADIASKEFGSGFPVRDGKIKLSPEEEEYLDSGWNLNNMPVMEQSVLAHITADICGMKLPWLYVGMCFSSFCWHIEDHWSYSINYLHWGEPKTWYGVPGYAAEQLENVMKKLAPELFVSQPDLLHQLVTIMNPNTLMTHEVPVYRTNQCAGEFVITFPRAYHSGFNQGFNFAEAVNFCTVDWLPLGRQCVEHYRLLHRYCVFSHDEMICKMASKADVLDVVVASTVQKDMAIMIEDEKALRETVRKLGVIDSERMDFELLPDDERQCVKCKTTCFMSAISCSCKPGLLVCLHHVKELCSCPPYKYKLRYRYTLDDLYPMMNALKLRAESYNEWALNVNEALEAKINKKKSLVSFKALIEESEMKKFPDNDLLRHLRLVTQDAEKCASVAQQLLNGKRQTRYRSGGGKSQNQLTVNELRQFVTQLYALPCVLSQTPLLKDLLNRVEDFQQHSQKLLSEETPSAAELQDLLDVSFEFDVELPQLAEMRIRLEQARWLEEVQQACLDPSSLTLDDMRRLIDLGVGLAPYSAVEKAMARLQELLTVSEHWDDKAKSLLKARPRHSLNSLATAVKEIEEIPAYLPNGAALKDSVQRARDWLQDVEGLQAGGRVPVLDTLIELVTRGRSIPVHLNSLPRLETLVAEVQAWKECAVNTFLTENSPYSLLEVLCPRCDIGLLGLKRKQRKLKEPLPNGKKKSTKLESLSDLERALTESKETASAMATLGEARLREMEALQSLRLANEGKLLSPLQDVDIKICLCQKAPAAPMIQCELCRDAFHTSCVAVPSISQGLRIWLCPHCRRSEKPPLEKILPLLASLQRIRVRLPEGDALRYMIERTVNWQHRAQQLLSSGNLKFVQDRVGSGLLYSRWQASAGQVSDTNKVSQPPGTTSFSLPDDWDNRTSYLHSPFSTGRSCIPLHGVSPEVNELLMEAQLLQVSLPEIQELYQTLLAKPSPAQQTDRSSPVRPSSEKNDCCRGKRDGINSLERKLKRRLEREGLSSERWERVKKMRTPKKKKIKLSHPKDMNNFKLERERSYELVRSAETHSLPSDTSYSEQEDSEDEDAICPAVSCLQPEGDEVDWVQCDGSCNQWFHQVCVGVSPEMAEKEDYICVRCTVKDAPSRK
# measurement description: LANCE Ultra TR-FRET JARID1B (KDM5B) demethylase inhibition assay
# Assay type: biochemical
# condition: 0.1 uM of test-compounds, FLAG-JARID1B, 500 nM biotinylated H3K4me3 peptide substrate, 30 min at room temperature

CN1CCC(Nc2nc(-c3nccc4c(=O)[nH]c(COc5ccc(F)c(Cl)c5)nc34)cs2)CC1 [Compound 94] :: ≥ 50%

We next turn to a different compound, shown below.
Problem: Given the compound O=c1[nH]c(COc2ccc(F)c(Cl)c2)nc2c(-c3csc(NCC4CCN(CCO)CC4)n3)nccc12 [Compound 100] , what is its reported inhibition at 0.1 µM?
Solution: 20 to 50%

###

# measurement target: Recombinant human JARID1B/KDM5B (Homo sapiens, UniProt Q9UGL1)
# Construct: purchased Active Motif 31432; host or cells: Sf9 insect cells
# measurement description: LANCE Ultra TR-FRET JARID1B (KDM5B) demethylase inhibition assay
# Format: biochemical
# condition: 0.1 uM of test-compounds, FLAG-JARID1B, 500 nM biotinylated H3K4me3 peptide substrate, 30 min at room temperature
measured endpoint: inhibition at 0.1 µM

Completed entries (count: 3):
O=c1[nH]c(COc2ccc(F)c(Cl)c2)nc2c(-c3csc(NCC(O)CN4CCNCC4)n3)nccc12 (stereo not shown) :: ≥ 50%
O=c1[nH]cnc2c(-c3cnn(CCO)c3)nccc12 :: 20 to 50%
CC(CNc1nc(-c2nccc3c(=O)[nH]c(COc4ccc(F)c(Cl)c4)nc23)cs1)Oc1ccccc1 (stereo not shown) :: < 20%

We next turn to a different molecule, shown below.
Problem: Given the molecule O=c1[nH]c(COc2ccc(F)c(Cl)c2)nc2c(-c3csc(NCCc4ccc(Cl)c(Cl)c4)n3)nccc12 , what is its reported inhibition at 0.1 µM?
Solution: < 20%

###

Below is a list of entries, each paired with its recorded inhibition at 0.1 µM value.
# measurement target: Recombinant human JARID1B/KDM5B (Homo sapiens, UniProt Q9UGL1)
# Construct: purchased Active Motif 31432; host or cells: Sf9 insect cells
# measurement description: LANCE Ultra TR-FRET JARID1B (KDM5B) demethylase inhibition assay
# Type: biochemical
# condition: 0.1 uM of test-compounds, FLAG-JARID1B, 500 nM biotinylated H3K4me3 peptide substrate, 30 min at room temperature

Completed entries (count: 5):
Nc1nn(-c2nccc3c(=O)[nH]cnc23)cc1-c1ccc(N2CCNCC2)nc1 [Compound 14] :: 20 to 50%
Nc1nn(-c2nccc3c(=O)[nH]cnc23)cc1-c1ccc(O)cc1 [Compound 25] :: 20 to 50%
Cn1cnc(-c2nccc3c(=O)[nH]c(COc4ccc(Cc5ccccc5)cc4)nc23)c1 [Compound 70] :: 20 to 50%
CN1CCC(Nc2nc(-c3nccc4c(=O)[nH]c(COc5ccc(F)cc5)nc34)cs2)CC1 [Compound 127] :: ≥ 50%
O=c1[nH]c(COc2ccc(F)c(Cl)c2)nc2c(-c3nccs3)nccc12 [Compound 74] :: 20 to 50%

Problem: Param readout= inhibition at 0.1 µM; system= Recombinant human JARID1B/KDM5B (Homo sapiens, UniProt Q9UGL1); entry= CC(=O)Nc1ccc(-c2cn(-c3nccc4c(=O)[nH]cnc34)nc2N)cc1 [Compound 18] ; returns value.
Solution: 20 to 50%

Problem: Follow-up item: Nc1nc(-c2nccc3c(=O)[nH]c(CCCc4ccccc4)nc23)cs1 [Compound 166]
Solution: 20 to 50%

Problem: Follow-up item: COCCN1CCC(CNc2nc(-c3nccc4c(=O)[nH]cnc34)cs2)CC1 [Compound 53]
Solution: ≥ 50%

###

Below is a list of entries, each paired with its recorded inhibition at 0.1 µM value.
# measurement target: Recombinant human JARID1B/KDM5B (Homo sapiens)
# Construct: purchased Active Motif 31432; host or cells: Sf9 insect cells
# measurement description: LANCE Ultra TR-FRET JARID1B (KDM5B) demethylase inhibition assay
# Format: biochemical
# condition: 0.1 uM of test-compounds, FLAG-JARID1B, 500 nM biotinylated H3K4me3 peptide substrate, 30 min at room temperature

CCC(O)CNc1nc(-c2nccc3c(=O)[nH]c(COc4ccc(F)c(Cl)c4)nc23)cs1 (centres unmarked) [Compound 95] :: 20 to 50%

Problem: Given the molecule O=c1[nH]c(COc2cccc(Cl)c2)nc2c(-c3csc(NCCO)n3)nccc12 [Compound 133] , what is its reported inhibition at 0.1 µM?
Solution: 20 to 50%

Problem: Follow-up item: O=c1[nH]c(COc2ccc(F)c(Cl)c2)nc2c(-c3cc[nH]n3)nccc12 [Compound 76]
Solution: < 20%

Problem: Follow-up item: O=c1[nH]cnc2c(-c3csc(NC4CCNCC4)n3)nccc12 [Compound 49]
Solution: 20 to 50%

Problem: Follow-up item: O=c1[nH]c(COc2ccc(F)c(Cl)c2)nc2c(-c3csc(NCC4CCN(C5CCCC5)CC4)n3)nccc12 [Compound 98]
Solution: 20 to 50%

Problem: Follow-up item: Nc1nn(-c2nccc3c(=O)[nH]cnc23)cc1-c1cccc(OCc2ccccc2)c1 [Compound 31]
Solution: ≥ 50%

Problem: Follow-up item: C[C@H](O)CNc1nc(-c2nccc3c(=O)[nH]c(COc4ccc(F)c(Cl)c4)nc23)cs1 [Compound 84]
Solution: ≥ 50%

Problem: Follow-up item: Nc1nn(-c2nccc3c(=O)[nH]cnc23)cc1-c1ccc(CCCO)cc1 [Compound 19]
Solution: 20 to 50%

Where these numbers come from: patent US20170057955A1
